Biological target: β-glucosidase/β-galactosidase from Agrobacterium sp. (ABG) (Agrobacterium sp.)
Sequence (P12614 whole entry): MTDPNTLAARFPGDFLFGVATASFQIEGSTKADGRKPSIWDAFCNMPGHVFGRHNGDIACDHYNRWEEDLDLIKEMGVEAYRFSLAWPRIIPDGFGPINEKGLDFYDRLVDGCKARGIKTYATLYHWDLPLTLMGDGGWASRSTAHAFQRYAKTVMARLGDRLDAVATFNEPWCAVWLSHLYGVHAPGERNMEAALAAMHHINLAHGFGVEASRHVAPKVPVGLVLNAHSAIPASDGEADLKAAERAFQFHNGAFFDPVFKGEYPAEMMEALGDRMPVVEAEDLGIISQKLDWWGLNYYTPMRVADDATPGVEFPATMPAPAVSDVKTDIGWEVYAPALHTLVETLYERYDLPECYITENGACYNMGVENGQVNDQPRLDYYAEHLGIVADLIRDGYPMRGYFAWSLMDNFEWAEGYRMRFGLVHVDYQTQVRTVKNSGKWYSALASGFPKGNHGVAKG
Assay: Ki determination with β-glucosidase from Agrobacterium sp. (ABG)
Conditions: 37 °C, 50 mM sodium phosphate buffer pH 7, 4-nitrophenyl glycopyranoside substrate; read-out: Ki β-Glu, ABG

smi | tested.target | qual | Ki, µM
O=C(CC[C@H]1NC[C@@H](O)[C@H](O)[C@H]1O)NCCc1c[nH]cn1 | β-glucosidase/β-galactosidase from Agrobacterium sp. (ABG) (Agrobacterium sp.) | = | 1.6
CCOC(=O)CC[C@H]1NC[C@@H](O)[C@H](O)[C@H]1O | β-glucosidase/β-galactosidase from Agrobacterium sp. (ABG) (Agrobacterium sp.) | = | 2.1
CC[C@@H]1[C@H](O)[C@@H](O)[C@H](O)CN1CCCCCC(=O)NCCc1c[nH]cn1 | β-glucosidase/β-galactosidase from Agrobacterium sp. (ABG) (Agrobacterium sp.) | > | 1000
CC[C@@H]1[C@H](O)[C@@H](O)[C@H](O)CN1CCCCCC(=O)OC | β-glucosidase/β-galactosidase from Agrobacterium sp. (ABG) (Agrobacterium sp.) | > | 1000

The measured values listed here are drawn from paper PMC6534063.
